// values below are reported phosphorylation enrichment
target: FGFR1 (UniProt P11362); experiment: phosphorylation enrichment, bacterial display (enrichment ratio); higher = better substrate or ligand; peptides without Tyr show the background
Sequence (P11362 whole entry, looked up): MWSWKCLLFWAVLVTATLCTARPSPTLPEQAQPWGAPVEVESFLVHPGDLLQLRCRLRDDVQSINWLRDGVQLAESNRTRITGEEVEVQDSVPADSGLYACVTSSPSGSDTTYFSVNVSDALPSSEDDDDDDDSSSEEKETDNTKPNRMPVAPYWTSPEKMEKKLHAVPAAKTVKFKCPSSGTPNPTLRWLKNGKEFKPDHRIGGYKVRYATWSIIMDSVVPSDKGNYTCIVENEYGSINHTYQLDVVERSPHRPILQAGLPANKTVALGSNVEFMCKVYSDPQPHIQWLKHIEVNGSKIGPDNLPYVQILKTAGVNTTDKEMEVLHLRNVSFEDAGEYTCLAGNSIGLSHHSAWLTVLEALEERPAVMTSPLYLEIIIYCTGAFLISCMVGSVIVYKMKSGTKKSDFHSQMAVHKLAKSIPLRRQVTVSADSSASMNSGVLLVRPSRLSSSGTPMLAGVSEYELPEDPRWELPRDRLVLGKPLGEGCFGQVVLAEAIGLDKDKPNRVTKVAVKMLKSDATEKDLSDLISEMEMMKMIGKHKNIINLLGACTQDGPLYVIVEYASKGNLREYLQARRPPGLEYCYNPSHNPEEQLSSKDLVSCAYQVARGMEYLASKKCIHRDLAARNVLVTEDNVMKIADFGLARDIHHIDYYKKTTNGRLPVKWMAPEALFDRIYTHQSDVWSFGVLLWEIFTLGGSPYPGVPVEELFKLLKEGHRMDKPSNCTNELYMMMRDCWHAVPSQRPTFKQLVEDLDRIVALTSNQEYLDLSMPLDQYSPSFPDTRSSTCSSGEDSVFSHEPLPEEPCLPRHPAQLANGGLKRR
metric: phosphorylation enrichment

INSERT INTO measurements (primary_sequence, target_system, result) VALUES
  ('HKLSSYEYDFE [BTK_Y40_Y39S]', 'FGFR1 (UniProt P11362)', 0.952),
  ('FMGVEYSSCDT [EPHA3_Y937_T933M]', 'FGFR1 (UniProt P11362)', 0.601),
  ('SASSSYSRSRS [SRRM4_Y549_R547S]', 'FGFR1 (UniProt P11362)', 0.378),
  ('YRDALYKSMVD [PHEX_Y250_F252S]', 'FGFR1 (UniProt P11362)', 0.458),
  ('FITVGYVDDTQ [HLA-B_Y51_S48T]', 'FGFR1 (UniProt P11362)', 0.658),
  ('RAVLLYEFVGK [NATD1_Y45_YF]', 'FGFR1 (UniProt P11362)', 2.12),
  ('KPPPSYESEEE [BRD4_Y599_T598S]', 'FGFR1 (UniProt P11362)', 0.584);

----------
target: SHP2-C SH2; experiment: SH2 binding enrichment of the phosphorylated peptide, bacterial display (enrichment ratio); higher = better substrate or ligand; peptides without Tyr show the background;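 also: peptide library displayed on the E. coli surface as eCPX fusions, selected cells deep-sequenced, score is each peptide's frequency after selection divided by its frequency in the input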
metric: SH2 binding enrichment

INSERT INTO results (primary_sequence, result) VALUES
  ('TPLSAYQIPRT [GAB2_Y324]', 0.853),
  ('MKTISYETLIA [DOCK10_Y1350]', 0.792),
  ('GPIFRYDSGGA [CYP11B1_Y81_L83S]', 0.732),
  ('PMWHPYKADVT [TP53TG5_Y255_V257A]', 1.04),
  ('TGDVQYRSSVR [FREM2_Y2158]', 0.631),
  ('HIILLYIFLKN [STXBP1_Y411_R406H]', 1.72),
  ('EQLRAYLEGLC [HLA-C_Y183_T187L]', 0.66),
  ('IKEFKYGIEEH [GJA1_Y137_K134E]', 0.489),
  ('GGSTYYIDTNA [ACTL6A_Y69_P66S]', 0.906),
  ('TDKLFYIYTPG [SLC27A4_Y243_S247P]', 1.12),
  ('HFMELYDLNRD [BBS2_Y648_R643H_YF]', 1.51),
  ('ATHSRYRLNDF [CLDN14_Y233_G232R_YF]', 0.825),
  ('LKVDVYGRSHK [FUT3_Y222]', 0.621);

----------
// values below are reported phosphorylation enrichment
tested on: c-Abl (mouse); assay: phosphorylation enrichment, bacterial display (enrichment ratio); higher = better substrate or ligand; peptides without Tyr show the background
metric: phosphorylation enrichment

INSERT INTO assay_data (primary_sequence, target_system, result) VALUES
  ('EKLQKYFRKNP [EHHADH_Y682_Q685K_YF]', 'c-Abl (mouse)', 0.763),
  ('DVCKKYAEAKD [ALB_Y343_N342K]', 'c-Abl (mouse)', 0.775),
  ('RAFSWYQHQRA [NDST1_Y714_YF]', 'c-Abl (mouse)', 1.09),
  ('WGLCSYYETSK [MAGED2_Y448_R446C]', 'c-Abl (mouse)', 0.818),
  ('ERLWVYGMSSS [F8_Y1728_D1727V]', 'c-Abl (mouse)', 0.691),
  ('TGDVQYRSSVR [FREM2_Y2158]', 'c-Abl (mouse)', 0.459),
  ('KLLRLYAVVTR [LYN_Y306_V303L]', 'c-Abl (mouse)', 0.918),
  ('QPGTDYKIFLF [FN1_Y1970_YF]', 'c-Abl (mouse)', 1.4),
  ('SLNAVYPRAGR [OAS3_Y376_S381R]', 'c-Abl (mouse)', 0.488),
  ('DAAEDYAEGVR [DHODH_Y194]', 'c-Abl (mouse)', 0.695),
  ('VEQIHYIGQNE [HMOX2_Y140_R137Q]', 'c-Abl (mouse)', 0.423),
  ('TKEPKYGGAGS [KIAA1210_Y1615_E1616G]', 'c-Abl (mouse)', 0.462),
  ('ISHVAYCVLGK [TRRAP_Y892_R893C]', 'c-Abl (mouse)', 1.03),
  ('SVVVPYEPPEG [TP53_Y220_V225G]', 'c-Abl (mouse)', 0.633),
  ('AEPNIYQEKLS [USP54_Y1233_D1231N]', 'c-Abl (mouse)', 0.802),
  ('KKFVPYFDLFM [IPO5_Y530_E525K_YF]', 'c-Abl (mouse)', 0.773),
  ('ATHSRYRLNDF [CLDN14_Y233_G232R_YF]', 'c-Abl (mouse)', 0.546),
  ('LLVVLCKYRCY [PSEN1_Y154_Y154C]', 'c-Abl (mouse)', 0.606),
  ('GSIQQYIFKQE [PRG4_Y1271_YF]', 'c-Abl (mouse)', 0.499),
  ('FLAATYPTVGQ [NF1_Y2508_YF]', 'c-Abl (mouse)', 0.401),
  ('DDEENYENVPR [FCRL3_Y722]', 'c-Abl (mouse)', 0.786),
  ('RELGEYALAEY [ALDH1A3_Y492]', 'c-Abl (mouse)', 1.67),
  ('MGIMLYGVDSR [PKD1_Y3143_V3138M]', 'c-Abl (mouse)', 0.745),
  ('TPLSAYQIPRT [GAB2_Y324]', 'c-Abl (mouse)', 8.8),
  ('EALDFYGEVKT [PTEN_Y155_R159K]', 'c-Abl (mouse)', 0.844),
  ('RRSKMYLKTRS [LPL_Y329_S325R]', 'c-Abl (mouse)', 0.578),
  ('GGSTYYIDTNA [ACTL6A_Y69_P66S]', 'c-Abl (mouse)', 0.654),
  ('IDSTPYRQWFE [RPS8_Y109_YF]', 'c-Abl (mouse)', 0.665),
  ('QMEKICTQQIQ [CCNB1IP1_Y125_Y125C]', 'c-Abl (mouse)', 0.986),
  ('FEAMEYLESKQ [BTK_Y511_C506Y_YF]', 'c-Abl (mouse)', 0.966),
  ('FSSLGYPLPEG [ZSWIM4_Y87_P89L_YF]', 'c-Abl (mouse)', 0.501),
  ('TTSQPYRRLCS [USH2A_Y534_C536R]', 'c-Abl (mouse)', 0.288),
  ('NDFGNYSNQSS [HNRNPA1_Y318_N319S]', 'c-Abl (mouse)', 0.458),
  ('GHLYAYNWISI [BEST1_Y227_D228N]', 'c-Abl (mouse)', 1.21),
  ('FHKALYTVRTY [PDE6C_Y266_S270T]', 'c-Abl (mouse)', 0.964),
  ('LVPPRYVRSEI [PKP2_Y194_A195V]', 'c-Abl (mouse)', 0.58),
  ('DPADRYLTEQF [CDKL5_Y286_C291Y_YF]', 'c-Abl (mouse)', 0.733),
  ('ASELGYVFQAI [UROD_Y133]', 'c-Abl (mouse)', 0.545),
  ('SQSAKYDMAED [TTC21B_Y1213_I1208S]', 'c-Abl (mouse)', 0.661),
  ('SGPRRYTVAAL [TTR_Y125_I127V]', 'c-Abl (mouse)', 0.635),
  ('IHETTYNSIMK [ACTA1_Y281]', 'c-Abl (mouse)', 0.572),
  ('AVNDFYAAKKT [CCDC178_Y422]', 'c-Abl (mouse)', 0.61),
  ('GPGSGYTNIMR [PKLR_Y564_R559G]', 'c-Abl (mouse)', 0.827),
  ('SEASFYKSLNL [NGEF_Y289_YF]', 'c-Abl (mouse)', 0.852),
  ('RCFVFYFSFLL [PTEN_Y177_R173C_YF]', 'c-Abl (mouse)', 0.732),
  ('LVRPPYSYLAL [FOXI1_Y126_S129L]', 'c-Abl (mouse)', 0.757),
  ('VAMELYVFGGV [GAN_Y471]', 'c-Abl (mouse)', 1.05),
  ('SGPRRYNIAAL [TTR_Y125_T126N]', 'c-Abl (mouse)', 0.452),
  ('AFLQTYSHEVS [PCDHGA5_Y753]', 'c-Abl (mouse)', 0.518),
  ('IGEVVYQWAVM [GRIN2A_Y502_R504W]', 'c-Abl (mouse)', 1.57),
  ('FKIFRYTLNDN [FN1_Y1975_L1974R_YF]', 'c-Abl (mouse)', 0.614),
  ('MSFDRYMAVCH [OR2A5_Y123_I126V_YF]', 'c-Abl (mouse)', 0.931),
  ('DAANNYARGHY [TUBA3E_Y103_S101N]', 'c-Abl (mouse)', 0.559),
  ('KYWREYILSLE [GPC3_Y299]', 'c-Abl (mouse)', 0.677),
  ('IDNKMYDPKMN [ENPP1_Y280]', 'c-Abl (mouse)', 0.41),
  ('NPIGLYSAETL [LDB3_Y202]', 'c-Abl (mouse)', 0.496);

Just for reference, the supplement of paper PMC10065799 is where these values come from.
